Taken from ChEMBL document CHEMBL1146223.

Norepinephrine transporter (Rattus norvegicus, UniProt Q9WTR4): reported pKi for various compounds.
Sequence (Q9WTR4 whole entry): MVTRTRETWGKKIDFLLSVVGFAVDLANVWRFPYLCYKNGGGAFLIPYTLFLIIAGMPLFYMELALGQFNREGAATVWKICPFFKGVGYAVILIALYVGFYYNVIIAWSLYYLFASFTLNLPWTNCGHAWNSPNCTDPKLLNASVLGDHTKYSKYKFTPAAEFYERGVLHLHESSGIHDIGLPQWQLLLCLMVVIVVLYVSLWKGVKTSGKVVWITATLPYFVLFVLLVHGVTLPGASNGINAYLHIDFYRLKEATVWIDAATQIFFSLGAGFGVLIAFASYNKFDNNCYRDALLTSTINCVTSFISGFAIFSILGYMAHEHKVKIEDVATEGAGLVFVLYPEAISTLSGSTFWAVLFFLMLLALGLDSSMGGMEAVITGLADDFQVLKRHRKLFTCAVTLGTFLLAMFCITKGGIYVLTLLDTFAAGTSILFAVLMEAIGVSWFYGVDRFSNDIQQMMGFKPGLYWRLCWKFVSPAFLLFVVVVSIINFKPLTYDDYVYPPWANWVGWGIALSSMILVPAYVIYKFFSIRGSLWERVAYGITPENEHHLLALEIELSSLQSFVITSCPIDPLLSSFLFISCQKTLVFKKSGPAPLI
pKi: −log10 of the molar value.

# example entries with known answers
CN1[C@H]2CC[C@@H]1[C@@H](c1ncc(-c3ccc(F)cc3)s1)[C@@H](c1ccc(Cl)cc1)C2
< 5.70
Cc1ccc([C@H]2C[C@@H]3CC[C@H]([C@H]2c2ncc(-c4ccc([N+](=O)[O-])cc4)s2)N3C)cc1
< 5.70

Okay, now this compound:
Qu. Entry under review: Cc1ccc([C@H]2C[C@@H]3CC[C@H]([C@H]2c2ncc(-c4cccc(Br)c4)s2)N3C)cc1 . Reported pKi?
Ans. < 5.70

====

Sodium-dependent dopamine transporter (Homo sapiens): reported pKi for various molecules.
Sequence (Q01959 whole entry): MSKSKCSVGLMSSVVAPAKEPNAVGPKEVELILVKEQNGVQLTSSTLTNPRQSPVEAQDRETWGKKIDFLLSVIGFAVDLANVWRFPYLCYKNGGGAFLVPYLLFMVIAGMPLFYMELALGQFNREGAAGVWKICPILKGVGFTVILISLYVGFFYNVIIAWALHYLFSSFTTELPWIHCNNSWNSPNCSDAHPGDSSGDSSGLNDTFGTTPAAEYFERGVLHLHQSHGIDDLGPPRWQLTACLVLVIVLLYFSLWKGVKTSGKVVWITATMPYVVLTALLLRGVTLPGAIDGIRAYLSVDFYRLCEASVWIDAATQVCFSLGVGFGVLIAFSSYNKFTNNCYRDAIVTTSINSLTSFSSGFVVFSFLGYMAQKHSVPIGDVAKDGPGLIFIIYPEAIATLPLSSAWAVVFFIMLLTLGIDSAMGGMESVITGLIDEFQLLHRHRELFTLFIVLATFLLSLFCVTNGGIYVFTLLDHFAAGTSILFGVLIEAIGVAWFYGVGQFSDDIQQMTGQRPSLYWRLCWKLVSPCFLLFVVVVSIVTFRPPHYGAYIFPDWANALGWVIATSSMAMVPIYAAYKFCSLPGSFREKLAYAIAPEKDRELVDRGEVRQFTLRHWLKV
Scale: pKi equals -log10([C]), with [C] in mol/L.

# example entries with known answers
Cc1ccc([C@H]2C[C@@H]3CC[C@H]([C@H]2c2ncc(-c4ccc(Br)cc4)s2)N3C)cc1
6.89
CN1[C@H]2CC[C@@H]1[C@@H](c1ncc(-c3ccc(Cl)cc3)s1)[C@@H](c1ccc(Cl)cc1)C2
7.55
Cc1ccc([C@H]2C[C@@H]3CC[C@H]([C@H]2c2ncc(-c4cccc([N+](=O)[O-])c4)s2)N3C)cc1
7.85
CN1[C@H]2CC[C@@H]1[C@@H](c1ncc(-c3ccc(F)cc3)s1)[C@@H](c1ccc(Cl)cc1)C2
7.92

Qu. Entry under review: COc1ccc(-c2cnc([C@H]3[C@@H](c4ccc(C)cc4)C[C@@H]4CC[C@H]3N4C)s2)cc1OC . Reported pKi?
Ans. 6.28

Qu. Thanks! And Cc1ccc([C@H]2C[C@@H]3CC[C@H]([C@H]2c2ncc(-c4ccc(F)cc4)s2)N3C)cc1 ?
Ans. 7.21

Qu. Thanks! And Cc1ccc([C@H]2C[C@@H]3CC[C@H]([C@H]2c2ncc(-c4ccc(Cl)cc4)s2)N3C)cc1 ?
Ans. 6.67

====

# study-system: Sodium-dependent serotonin transporter (Homo sapiens, UniProt P31645)
# Sequence (P31645 whole entry): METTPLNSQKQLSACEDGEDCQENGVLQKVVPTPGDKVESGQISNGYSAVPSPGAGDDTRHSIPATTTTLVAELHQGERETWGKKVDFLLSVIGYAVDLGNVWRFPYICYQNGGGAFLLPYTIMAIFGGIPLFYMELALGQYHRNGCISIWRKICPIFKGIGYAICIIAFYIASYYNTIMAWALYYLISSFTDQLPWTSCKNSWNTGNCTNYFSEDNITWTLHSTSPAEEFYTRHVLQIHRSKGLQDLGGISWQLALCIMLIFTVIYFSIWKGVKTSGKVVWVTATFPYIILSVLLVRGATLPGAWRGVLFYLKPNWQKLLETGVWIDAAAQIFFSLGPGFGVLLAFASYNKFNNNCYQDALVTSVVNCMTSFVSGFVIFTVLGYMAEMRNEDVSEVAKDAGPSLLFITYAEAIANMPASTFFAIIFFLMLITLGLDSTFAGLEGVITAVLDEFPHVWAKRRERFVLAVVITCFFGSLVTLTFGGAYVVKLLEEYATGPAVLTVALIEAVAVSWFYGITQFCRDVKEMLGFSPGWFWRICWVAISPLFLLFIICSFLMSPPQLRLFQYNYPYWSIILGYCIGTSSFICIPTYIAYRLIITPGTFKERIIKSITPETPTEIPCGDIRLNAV
# run-description: Inhibition of human SERT in HEK cells assessed as [3H]serotonin reuptake
So basically: is IC50 under 4 µM? Then 1. Not under? Then 0.

Completed entries (count: 6):
CN1[C@H]2CC[C@@H]1[C@@H](c1ncc(-c3ccc(F)cc3)s1)[C@@H](c1ccc(Cl)cc1)C2
1
CN1[C@H]2CC[C@@H]1[C@@H](c1ncc(-c3cccc([N+](=O)[O-])c3)s1)[C@@H](c1ccc(Cl)cc1)C2
1
Cc1ccc([C@H]2C[C@@H]3CC[C@H]([C@H]2c2ncc(-c4ccc(Br)cc4)s2)N3C)cc1
1
Cc1ccc([C@H]2C[C@@H]3CC[C@H]([C@H]2c2ncc(-c4cccc([N+](=O)[O-])c4)s2)N3C)cc1
1
Cc1ccc([C@H]2C[C@@H]3CC[C@H]([C@H]2c2ncc(-c4ccc(Cl)c(Cl)c4)s2)N3C)cc1
0
COc1ccc(-c2cnc([C@H]3[C@@H](c4ccc(C)cc4)C[C@@H]4CC[C@H]3N4C)s2)cc1OC
0

Qu. Does the reported IC50 of the following compound sit strictly below 4 µM? COc1ccc(-c2cnc([C@H]3[C@@H](c4ccc(Cl)cc4)C[C@@H]4CC[C@H]3N4C)s2)cc1
Ans. 0

====

Sodium-dependent serotonin transporter (Rattus norvegicus, UniProt P31652): reported Ki for various compounds.
Sequence (P31652 whole entry): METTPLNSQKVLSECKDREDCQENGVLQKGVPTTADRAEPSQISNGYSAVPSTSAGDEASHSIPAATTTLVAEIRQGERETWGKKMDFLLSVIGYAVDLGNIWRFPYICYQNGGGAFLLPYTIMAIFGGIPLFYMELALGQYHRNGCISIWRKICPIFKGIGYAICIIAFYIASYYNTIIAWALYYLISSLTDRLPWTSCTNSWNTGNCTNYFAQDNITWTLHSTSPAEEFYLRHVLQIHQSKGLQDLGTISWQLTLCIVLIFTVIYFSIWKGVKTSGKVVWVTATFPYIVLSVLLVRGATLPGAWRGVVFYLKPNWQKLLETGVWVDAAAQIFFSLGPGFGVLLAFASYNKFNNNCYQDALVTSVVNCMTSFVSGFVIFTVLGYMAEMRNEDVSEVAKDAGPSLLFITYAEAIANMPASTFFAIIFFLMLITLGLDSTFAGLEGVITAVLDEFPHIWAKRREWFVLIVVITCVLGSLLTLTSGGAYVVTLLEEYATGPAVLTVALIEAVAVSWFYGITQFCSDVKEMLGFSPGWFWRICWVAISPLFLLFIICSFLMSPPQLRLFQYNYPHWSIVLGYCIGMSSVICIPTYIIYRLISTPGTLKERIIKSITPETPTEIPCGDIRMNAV

# example entries with known answers
COc1ccc(-c2cnc([C@H]3[C@@H](c4ccc(C)cc4)C[C@@H]4CC[C@H]3N4C)s2)cc1OC
> 2000 nM
CN1[C@H]2CC[C@@H]1[C@@H](c1ncc(-c3ccccc3)s1)[C@@H](c1ccc(Cl)cc1)C2
> 2000 nM

Okay, now this compound:
Qu. Entry under review: COc1ccc(-c2cnc([C@H]3[C@@H](c4ccc(C)cc4)C[C@@H]4CC[C@H]3N4C)s2)cc1 . Reported Ki?
Ans. > 2000 nM
